All figures here come from ChEMBL document CHEMBL1154546.

assay: Displacement of [3H]BTA1 from amyloid beta (1 to 40) peptide by […]
Recorded Ki, one value per entry.
Respond with the bare value in nM.

smiles_str: COc1cc(C(=O)Nc2ccc3oc(-c4ccc(N(C)C)cc4)nc3c2)cc(OC)c1OC
reported_property: Ki
result_value: 109

What value of Ki has been reported for the following molecule? Cc1ccccc1C(=O)Nc1ccc2oc(-c3ccc(N(C)C)cc3)nc2c1
18.9

// returns reported Ki for input Cc1ccccc1C(=O)Nc1ccc2nc(-c3ccc(N(C)C)cc3)oc2c1
112

State the recorded Ki for this entry: CN(C)c1ccc(-c2nc3cc(NC(=O)c4ccc5c(c4)OCO5)ccc3o2)cc1
17.2

Would you mind telling me what Ki value was observed for Cc1ccc(C(=O)Nc2ccc3nc(-c4ccc(N(C)C)cc4)oc3c2)cc1 ?
86

Sample Cc1ccc(C(=O)Nc2ccc3oc(-c4ccc(N(C)C)cc4)nc3c2)cc1 — what was its Ki?
13.2

Need Ki of Cc1cccc(C(=O)Nc2ccc3nc(-c4ccc(N(C)C)cc4)oc3c2)c1 , thanks.
31.5

# lookup: Ki of CN(C)c1ccc(-c2nc3ccc(NC(=O)c4ccccc4)cc3o2)cc1
26

Sample CN(C)c1ccc(-c2nc3cc(NC(=O)c4ccccc4)ccc3o2)cc1 — what was its Ki?
12

Looking for the measured Ki of CN(C)c1ccc(-c2nc3ccc(NC(=O)c4ccc(I)cc4)cc3o2)cc1 , can you help?
60.1

Which value of Ki has been reported for Cc1cccc(C(=O)Nc2ccc3oc(-c4ccc(N(C)C)cc4)nc3c2)c1 in the records?
13.4

---

test: Displacement of [3H]BTA1 from amyloid beta (1 to 40) peptide by […]
reported_property: pKi
Scale for pKi: -log10 of concentration given in mol/L; no unit attached.

Guide cases for pKi, answers given:
smiles_str: COc1cc(C(=O)Nc2ccc3nc(-c4ccc(N(C)C)cc4)oc3c2)cc(OC)c1OC
result_value: 6.20
//
smiles_str: CN(C)c1ccc(-c2nc3cc(NC(=O)c4ccc(I)cc4)ccc3o2)cc1
result_value: 8.03

Name the reported pKi value associated with the molecule CN(C)c1ccc(-c2nc3ccc(NC(=O)c4ccc5c(c4)OCO5)cc3o2)cc1
7.71
